These data points were gathered from PubChem BioAssay AID463204.

System: S. cerevisiae Mot1-301 ts growth rescue, BacTiter-Glo ATP luminescence
measurement notes: restored Mot1-301 yeast growth at 38.5C – whole organism, S. cerevisiae, Mot1-301 ts mutant, luminescence, dose retest, SUMOylation pathway inhibitor project, confirmation (AID 463204);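 also: growth at restrictive 38.5 degrees C of Mot1-301 OY566 strain; actives raise luminescence by restoring growth of the ts mutant at high temperature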
The source made the active and inactive calls.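 The calls were made as follows: active = AC50 no more than ten times the top concentration tested, that is within one log above it; inconclusive = flat curve fit with activity between 30% and 70%, or invalid poor fit; inactive = AC50 beyond ten times the top tested dose.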
For each of the compounds below, state its AC50.

Field: example entries. Status: answers known.
| compound | AC50 |
| --- | --- |
| CCOC(=O)c1c(N)sc(C(=O)N2CCCC(C(N)=O)C2)c1C (stereo unspecified) | > 42 µM (inactive) |
| CCc1nc2ccccc2c(C(=O)OC2CCCCC2=O)c1C (stereo unspecified) | > 42 µM (inactive) |
| O=C(COC(=O)c1cc([N+](=O)[O-])ccc1N1CCOCC1)Nc1cccc(F)c1 | > 42 µM (inactive) |

Would you mind listing AC50 for each of the following compounds?
1. COc1ccc2c(c1)[C@H]1[C@H](CO2)[C@H](c2ccccc2)[C@]2(C)C(=O)Nc3ccc(C)cc3C(=O)N12
2. CC(OC(=O)c1cnccn1)C(=O)c1ccccc1 (stereo unspecified)
3. O=C1CCCC2=C1C(c1ccncc1)c1c(nc(SCc3ccccc3Cl)[nH]c1=O)N2 (stereo unspecified)
4. CCc1ccccc1NC(=S)NNC(=O)c1ccccc1Cl

Response given:
> 42 µM (inactive)
> 42 µM (inactive)
> 42 µM (inactive)
> 42 µM (inactive)

// input: 4 compounds below; output: AC50 for each
1. CNC(=O)Nc1cc(NC(=O)NC)cc(C(F)(F)F)c1
2. Cc1ccc(C(C[N+](=O)[O-])c2c(C)[nH]n(-c3ccccc3)c2=O)cc1 (stereo unspecified)
3. CC1CN(C(=O)c2cc([N+](=O)[O-])cc([N+](=O)[O-])c2)CC(C)O1 (stereo unspecified)
4. Cc1[nH]oc(=O)c1N=Nc1ccccc1

Response given:
> 42 µM (inactive)
6.06 µM
> 42 µM (inactive)
30.6 µM

----------
System: S. cerevisiae Mot1-301 ts growth rescue, BacTiter-Glo ATP luminescence
measurement notes: restored Mot1-301 yeast growth at 38.5C – whole organism, S. cerevisiae, Mot1-301 ts mutant, luminescence, dose retest, SUMOylation pathway inhibitor project, confirmation (AID 463204);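 also: growth at restrictive 38.5 degrees C of Mot1-301 OY566 strain; actives raise luminescence by restoring growth of the ts mutant at high temperature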
The source made the active and inactive calls.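 How the source made its calls: active means AC50 no more than ten times the top concentration tested, that is within one log above it; inconclusive means flat curve fit with activity between 30% and 70%, or invalid poor fit; inactive means AC50 beyond ten times the top tested dose.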
Respond using exactly one of the listed classes: TRUE (active), FALSE (inactive)

Would you please look over these solved cases?
| compound | assigned category |
| --- | --- |
| CCOC(=O)C1=C(C)Nc2ncnn2C1/C=C/c1ccccc1 (stereo unspecified) | FALSE |
| COc1cc(/C=N/NC(=S)NCc2ccco2)cc(OC)c1OC | FALSE |
| COc1ccc2nc(SCC(=O)N(C)CC(=O)Nc3ccc(F)cc3)[nH]c2c1 | FALSE |
| CCCCn1c(/C=N/Nc2nc3ccccc3[nH]2)nc2ccccc21 | TRUE |
| Cc1ccc2nc(SCC(=O)Nc3cccc(S(N)(=O)=O)c3)[nH]c2c1 | FALSE |
| CC(C)c1cc(C(=O)N/N=C/C(Br)=C/c2ccccc2)n[nH]1 | TRUE |
| CCOc1ccc(OCC)c(NC(=O)C2COc3ccccc3O2)c1 (stereo unspecified) | FALSE |
| Cc1ccc(CC(=O)O/N=C(\N)c2cccc([N+](=O)[O-])c2)cc1 | FALSE |

Challenge: Write down the call the test reported for this compound. Item: COc1ccc(CN2CCCCCC2)cc1
Response given: FALSE

Challenge: What is the recorded call for this compound in the test? N#Cc1ccc(Oc2ccc(S(=O)(=O)N3CCCCC3)cn2)cc1
Response given: FALSE

Challenge: Tell me the assay call for COC(=O)c1c(C)cc(O)c(C=O)c1O please.
Response given: TRUE
